Consider the following binders and their measured median log2 fold change readings.
- Target: GABARAP, O95166
- Sequence (O95166 whole entry, the tested form may be a part): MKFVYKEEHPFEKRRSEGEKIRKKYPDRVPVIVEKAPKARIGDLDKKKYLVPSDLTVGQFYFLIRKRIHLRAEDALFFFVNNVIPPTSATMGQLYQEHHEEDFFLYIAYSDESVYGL
- Assay procedure: median log2 fold change of GCK-ALFA target abundance (FLAG IP / Myc IP barcode read proportion) (log2 ratio); each designed protein is fused to an ALFA-tag nanobody in HEK293 cells to bring the named protein to FLAG-tagged glucokinase (GCK); Myc marks an untargeted standard; higher = target protein stabilised (more abundant)
- Measurement conditions: target protein: 3xFLAG-MCP-GCK-ALFA reporter; HEK293 landing pad (RPLP)
Over roughly 4,500 sequences, “median log2 fold change of GCK-ALFA target abundance (FLAG IP / Myc IP barcode read proportion)” has its median near 0.078; the lowest 2% begin near -0.6. Only a selection was taken, and the lowest values are over-represented in it overall.
Measurement kind: median log2 fold change

INSERT INTO measurements (binder, measurement_kind, recorded_result) VALUES
  ('GBRAP_137_3676 (protein) SKVEIEIKEEDGLVEITVTVYDPEKAEETEEKLLDIAHEVGALAVAIKRNEDGSLEITIVVPEEKGEEAEKKVLELAKEYDEVIIKKEKDGKTEEEVIKK', 'median log2 fold change', 0.249),
  ('GBRAP_39_5664 (protein) EEDEENELLFEYYLAKAEGYRIKEGISDEELIERGKELLKAIAKEHPEIKELVEELLKEVDKGDEDVGLAAAGIALDYLEGLPIEEIKEHLEKLLKYVKK', 'median log2 fold change', 0.132),
  ('GBRAP_52_6039 (protein) MEEEMRRKAEEIVELVKAGRRAEAEARIRELVATWSEEELELLGEELARLAREAEPEDLDAVMEAALMLADALEAAGYDPAFADDLLARVAAAAVENLQR', 'median log2 fold change', -0.911),
  ('GBRAP_160_4279 (protein) SEKLLELAEELEEDREEILSLVDEISAEEVRTLAVTDLGSILLEAIDLELLSDEEEDELAKIIDDLDAELAAAADASPAERRAIITRHYDKAIELLRKAA', 'median log2 fold change', -0.493);
